# tgt: recombinant HDAC8 (Homo sapiens, UniProt Q9BY41)
# Construct: purchased BPS Bioscience
# Sequence (Q9BY41 1-377): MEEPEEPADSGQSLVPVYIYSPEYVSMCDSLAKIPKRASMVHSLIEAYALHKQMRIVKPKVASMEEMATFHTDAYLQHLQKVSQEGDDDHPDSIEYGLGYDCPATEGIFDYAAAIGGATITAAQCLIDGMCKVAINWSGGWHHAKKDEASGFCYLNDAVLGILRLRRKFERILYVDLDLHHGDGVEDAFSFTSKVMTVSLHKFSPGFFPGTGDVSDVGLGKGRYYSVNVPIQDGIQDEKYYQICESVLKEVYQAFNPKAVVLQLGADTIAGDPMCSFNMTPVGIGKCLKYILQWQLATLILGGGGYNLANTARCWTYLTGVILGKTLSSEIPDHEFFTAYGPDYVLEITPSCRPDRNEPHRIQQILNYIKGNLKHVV
# test_details: Recombinant HDAC8 inhibition (HDAC-Glo)
# Assay type: biochemical
# condition_description: 1.25 × 10^−8 M; read-out: Deacetylase activity (%) HDAC8
assay_metric: activity at 0.0125 µM (%)

{"columns": ["molecule", "units_symbol", "quantitative_readout"],
 "data": [
  ["CCCCCCC(CCCC(=O)Nc1ccccc1)CCC(=O)NO (racemic) [Compound 1d]", "%", 92],
  ["O=C(CCC(CCCC(=O)Nc1ccccc1)Cc1ccccc1)NO (racemic) [Compound 1f]", "%", 87],
  ["O=C(CC[C@@H](CCCC(=O)Nc1ccccc1)Cc1ccccc1)NO [(R)-1f]", "%", 64],
  ["CCCCC(CCCC(=O)Nc1ccccc1)CCC(=O)NO (racemic) [Compound 1c]", "%", 84]
]}

----------
# tgt: HDAC3 (Homo sapiens, UniProt O15379)
# Sequence (O15379 whole entry): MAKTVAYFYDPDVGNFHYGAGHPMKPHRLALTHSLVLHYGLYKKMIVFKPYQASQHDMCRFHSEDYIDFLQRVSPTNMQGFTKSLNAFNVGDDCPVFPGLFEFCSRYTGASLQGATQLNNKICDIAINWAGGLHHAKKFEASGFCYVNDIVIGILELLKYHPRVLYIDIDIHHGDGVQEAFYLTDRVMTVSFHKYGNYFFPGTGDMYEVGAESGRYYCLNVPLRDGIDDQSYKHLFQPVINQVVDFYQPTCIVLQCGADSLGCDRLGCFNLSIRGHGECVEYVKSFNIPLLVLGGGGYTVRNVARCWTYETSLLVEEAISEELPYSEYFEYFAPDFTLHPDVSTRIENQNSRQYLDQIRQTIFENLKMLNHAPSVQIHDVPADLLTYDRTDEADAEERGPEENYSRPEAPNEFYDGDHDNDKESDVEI
# Sequence (Q9Y618 whole entry partner): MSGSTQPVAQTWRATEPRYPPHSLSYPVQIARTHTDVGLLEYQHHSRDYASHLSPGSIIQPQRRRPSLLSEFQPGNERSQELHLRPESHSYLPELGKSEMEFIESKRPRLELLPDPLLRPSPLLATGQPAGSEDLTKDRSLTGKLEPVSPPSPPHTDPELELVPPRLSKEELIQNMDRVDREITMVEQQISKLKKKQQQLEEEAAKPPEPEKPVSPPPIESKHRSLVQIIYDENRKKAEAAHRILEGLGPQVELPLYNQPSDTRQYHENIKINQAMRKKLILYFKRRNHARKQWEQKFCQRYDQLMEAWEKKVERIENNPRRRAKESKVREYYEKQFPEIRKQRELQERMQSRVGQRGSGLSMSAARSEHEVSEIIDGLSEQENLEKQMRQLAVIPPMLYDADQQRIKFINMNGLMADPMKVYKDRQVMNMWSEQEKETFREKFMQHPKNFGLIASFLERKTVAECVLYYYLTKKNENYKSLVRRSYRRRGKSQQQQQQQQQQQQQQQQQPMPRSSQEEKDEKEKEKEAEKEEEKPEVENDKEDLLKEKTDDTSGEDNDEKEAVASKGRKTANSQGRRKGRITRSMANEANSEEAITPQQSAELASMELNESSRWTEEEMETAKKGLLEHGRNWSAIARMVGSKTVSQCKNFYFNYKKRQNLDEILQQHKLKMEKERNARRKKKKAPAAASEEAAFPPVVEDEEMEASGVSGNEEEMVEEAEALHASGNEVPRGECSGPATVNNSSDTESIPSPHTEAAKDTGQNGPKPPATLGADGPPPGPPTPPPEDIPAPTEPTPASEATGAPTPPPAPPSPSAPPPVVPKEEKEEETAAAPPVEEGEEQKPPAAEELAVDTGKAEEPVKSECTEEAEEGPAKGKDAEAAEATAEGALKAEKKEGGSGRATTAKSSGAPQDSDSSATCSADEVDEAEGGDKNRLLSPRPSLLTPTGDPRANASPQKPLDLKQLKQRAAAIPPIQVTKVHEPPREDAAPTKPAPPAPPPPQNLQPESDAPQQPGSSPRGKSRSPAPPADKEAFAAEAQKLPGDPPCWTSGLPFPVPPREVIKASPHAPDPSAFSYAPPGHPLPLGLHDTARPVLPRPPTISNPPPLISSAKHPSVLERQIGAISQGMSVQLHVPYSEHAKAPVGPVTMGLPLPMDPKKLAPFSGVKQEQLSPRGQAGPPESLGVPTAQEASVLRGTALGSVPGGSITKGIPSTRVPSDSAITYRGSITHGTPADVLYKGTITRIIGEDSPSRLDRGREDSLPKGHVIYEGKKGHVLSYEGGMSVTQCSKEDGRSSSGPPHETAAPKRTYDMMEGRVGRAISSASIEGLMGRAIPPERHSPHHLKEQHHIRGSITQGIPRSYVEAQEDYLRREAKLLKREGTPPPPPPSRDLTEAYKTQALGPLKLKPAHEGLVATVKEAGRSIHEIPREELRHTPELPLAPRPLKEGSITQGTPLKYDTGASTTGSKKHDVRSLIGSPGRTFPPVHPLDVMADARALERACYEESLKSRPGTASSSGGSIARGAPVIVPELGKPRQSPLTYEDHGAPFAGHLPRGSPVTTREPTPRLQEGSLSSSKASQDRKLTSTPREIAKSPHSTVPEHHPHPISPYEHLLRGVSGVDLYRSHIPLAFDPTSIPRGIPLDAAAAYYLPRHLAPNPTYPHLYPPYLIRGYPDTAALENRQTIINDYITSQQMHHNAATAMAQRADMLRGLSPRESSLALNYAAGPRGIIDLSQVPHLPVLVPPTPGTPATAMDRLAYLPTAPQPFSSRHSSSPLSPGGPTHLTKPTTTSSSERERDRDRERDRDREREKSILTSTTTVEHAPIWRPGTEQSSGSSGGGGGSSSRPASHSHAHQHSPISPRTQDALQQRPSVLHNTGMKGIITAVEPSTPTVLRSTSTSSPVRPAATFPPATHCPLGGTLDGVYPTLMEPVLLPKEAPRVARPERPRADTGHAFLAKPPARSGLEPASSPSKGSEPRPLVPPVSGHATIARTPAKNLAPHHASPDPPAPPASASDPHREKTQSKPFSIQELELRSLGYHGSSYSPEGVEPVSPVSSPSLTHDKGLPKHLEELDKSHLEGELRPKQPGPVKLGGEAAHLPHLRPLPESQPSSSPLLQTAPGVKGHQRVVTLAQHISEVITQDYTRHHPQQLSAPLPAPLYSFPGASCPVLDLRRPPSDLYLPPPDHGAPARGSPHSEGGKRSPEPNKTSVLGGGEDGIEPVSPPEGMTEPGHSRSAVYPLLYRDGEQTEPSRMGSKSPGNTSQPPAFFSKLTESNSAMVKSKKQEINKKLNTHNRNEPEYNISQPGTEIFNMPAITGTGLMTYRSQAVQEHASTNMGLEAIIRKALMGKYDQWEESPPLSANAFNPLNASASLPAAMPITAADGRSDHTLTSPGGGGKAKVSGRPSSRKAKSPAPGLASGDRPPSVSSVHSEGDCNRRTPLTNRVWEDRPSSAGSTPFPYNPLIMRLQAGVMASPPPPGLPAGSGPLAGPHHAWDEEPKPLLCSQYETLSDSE
# test_details: ELISA-based HDAC activity assay, HDAC3
# condition_description: read-out: Deacetylase activity (%) HDAC3
assay_metric: activity at 20 µM (%)

{"columns": ["compound", "activity at 20 µM (%)"],
 "data": [
  ["CCCCCCC(CCCC(=O)Nc1ccccc1)CCC(=O)NO (racemic)", 56],
  ["O=C(CCC(CCCC(=O)Nc1ccccc1)Cc1ccccc1)NO (racemic)", 63],
  ["O=C(CC[C@H](CCCC(=O)Nc1ccccc1)Cc1ccccc1)NO [(S)-1f]", 67],
  ["O=C(CC[C@@H](CCCC(=O)Nc1ccccc1)Cc1ccccc1)NO [(R)-1f]", 54]
]}

----------
# tgt: HDAC6 (Homo sapiens)
# test_details: ELISA-based HDAC activity assay, HDAC6
# condition_description: read-out: Deacetylase activity (%) HDAC6
assay_metric: activity at 0.4 µM (%)

Example entries begin here.
{"columns": ["compound", "tgt", "activity at 0.4 µM [%]"],
 "data": [
  ["CCCCC(CCCC(=O)Nc1ccccc1)CCC(=O)NO (racemic)", "HDAC6 (Homo sapiens)", 23],
  ["CCCCCCC(CCCC(=O)Nc1ccccc1)CCC(=O)NO (racemic)", "HDAC6 (Homo sapiens)", 27],
  ["O=C(CC[C@H](CCCC(=O)Nc1ccccc1)Cc1ccccc1)NO [(S)-1f]", "HDAC6 (Homo sapiens)", 17]
]}

[a] CCC(CCCC(=O)Nc1ccccc1)CCC(=O)NO (racemic)
[b] O=C(CCC(CCCC(=O)Nc1ccccc1)Cc1ccccc1)NO (racemic)
Input line: Looking at recorded values for activity at 0.4 µM, does a or b come in lower? Kindly state the label of the option you pick.
Output line: b
(b: 18%, a: 33%)

----------
# tgt: HDAC6 (Homo sapiens, UniProt Q9UBN7)
# test_details: ELISA-based HDAC activity assay, HDAC6
assay_metric: IC50 (nM)

{"columns": ["compound", "IC50 (nM)"],
 "data": [
  ["CCC(CCCC(=O)Nc1ccccc1)CCC(=O)NO (racemic) [Compound 1b]", 160],
  ["O=C(CCC(CCCC(=O)Nc1ccccc1)Cc1ccccc1)NO (racemic) [Compound 1f]", 140],
  ["CCCCCCC(CCCC(=O)Nc1ccccc1)CCC(=O)NO (racemic) [Compound 1d]", 140]
]}

----------
# tgt: HDAC6 (Homo sapiens)
# Sequence (Q9UBN7 1-1215): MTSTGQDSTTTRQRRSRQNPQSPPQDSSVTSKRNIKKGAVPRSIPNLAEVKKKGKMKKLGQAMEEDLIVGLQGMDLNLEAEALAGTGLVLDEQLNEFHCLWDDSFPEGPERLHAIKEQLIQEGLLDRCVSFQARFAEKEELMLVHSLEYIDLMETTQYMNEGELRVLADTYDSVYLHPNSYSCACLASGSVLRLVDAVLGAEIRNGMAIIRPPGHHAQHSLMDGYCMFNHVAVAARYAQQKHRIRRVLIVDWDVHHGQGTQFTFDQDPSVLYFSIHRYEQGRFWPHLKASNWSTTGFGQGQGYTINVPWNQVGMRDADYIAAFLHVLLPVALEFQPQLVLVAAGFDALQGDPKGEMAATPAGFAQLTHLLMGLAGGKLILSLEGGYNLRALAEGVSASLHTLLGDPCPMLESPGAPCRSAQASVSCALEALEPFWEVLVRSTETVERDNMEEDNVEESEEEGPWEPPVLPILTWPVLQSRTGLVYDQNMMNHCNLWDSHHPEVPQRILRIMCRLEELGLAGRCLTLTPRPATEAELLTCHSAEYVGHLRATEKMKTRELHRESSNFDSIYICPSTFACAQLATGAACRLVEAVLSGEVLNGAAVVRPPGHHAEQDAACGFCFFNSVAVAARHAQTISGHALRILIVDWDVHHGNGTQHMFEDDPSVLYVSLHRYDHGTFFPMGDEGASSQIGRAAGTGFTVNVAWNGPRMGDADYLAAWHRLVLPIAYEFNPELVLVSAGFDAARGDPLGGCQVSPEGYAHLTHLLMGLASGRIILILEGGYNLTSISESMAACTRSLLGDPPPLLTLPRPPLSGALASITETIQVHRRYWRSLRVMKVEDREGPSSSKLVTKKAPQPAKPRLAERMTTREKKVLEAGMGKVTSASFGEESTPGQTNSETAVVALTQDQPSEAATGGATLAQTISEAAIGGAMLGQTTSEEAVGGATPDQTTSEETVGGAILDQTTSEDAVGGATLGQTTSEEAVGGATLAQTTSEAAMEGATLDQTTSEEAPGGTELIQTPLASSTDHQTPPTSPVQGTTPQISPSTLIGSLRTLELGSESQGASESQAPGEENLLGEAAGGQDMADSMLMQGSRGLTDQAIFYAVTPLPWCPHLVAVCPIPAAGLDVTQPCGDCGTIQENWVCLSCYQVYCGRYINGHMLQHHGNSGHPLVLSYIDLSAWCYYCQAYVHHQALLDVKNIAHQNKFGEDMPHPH
# test_details: ELISA-based HDAC activity assay, HDAC6
# condition_description: read-out: Deacetylase activity (%) HDAC6
assay_metric: activity at 0.05 µM (%)

{"columns": ["molecule", "activity at 0.05 µM (%)"],
 "data": [
  ["O=C(CC[C@@H](CCCC(=O)Nc1ccccc1)Cc1ccccc1)NO [(R)-1f]", 57],
  ["CCC(CCCC(=O)Nc1ccccc1)CCC(=O)NO (racemic)", 74],
  ["CCCCCCC(CCCC(=O)Nc1ccccc1)CCC(=O)NO (racemic)", 75],
  ["O=C(CC[C@H](CCCC(=O)Nc1ccccc1)Cc1ccccc1)NO [(S)-1f]", 64],
  ["CCCCC(CCCC(=O)Nc1ccccc1)CCC(=O)NO (racemic)", 61],
  ["O=C(CCC(CCCC(=O)Nc1ccccc1)Cc1ccccc1)NO (racemic)", 76]
]}

----------
# tgt: HDAC6 (Homo sapiens)
# Sequence (Q9UBN7 1-1215): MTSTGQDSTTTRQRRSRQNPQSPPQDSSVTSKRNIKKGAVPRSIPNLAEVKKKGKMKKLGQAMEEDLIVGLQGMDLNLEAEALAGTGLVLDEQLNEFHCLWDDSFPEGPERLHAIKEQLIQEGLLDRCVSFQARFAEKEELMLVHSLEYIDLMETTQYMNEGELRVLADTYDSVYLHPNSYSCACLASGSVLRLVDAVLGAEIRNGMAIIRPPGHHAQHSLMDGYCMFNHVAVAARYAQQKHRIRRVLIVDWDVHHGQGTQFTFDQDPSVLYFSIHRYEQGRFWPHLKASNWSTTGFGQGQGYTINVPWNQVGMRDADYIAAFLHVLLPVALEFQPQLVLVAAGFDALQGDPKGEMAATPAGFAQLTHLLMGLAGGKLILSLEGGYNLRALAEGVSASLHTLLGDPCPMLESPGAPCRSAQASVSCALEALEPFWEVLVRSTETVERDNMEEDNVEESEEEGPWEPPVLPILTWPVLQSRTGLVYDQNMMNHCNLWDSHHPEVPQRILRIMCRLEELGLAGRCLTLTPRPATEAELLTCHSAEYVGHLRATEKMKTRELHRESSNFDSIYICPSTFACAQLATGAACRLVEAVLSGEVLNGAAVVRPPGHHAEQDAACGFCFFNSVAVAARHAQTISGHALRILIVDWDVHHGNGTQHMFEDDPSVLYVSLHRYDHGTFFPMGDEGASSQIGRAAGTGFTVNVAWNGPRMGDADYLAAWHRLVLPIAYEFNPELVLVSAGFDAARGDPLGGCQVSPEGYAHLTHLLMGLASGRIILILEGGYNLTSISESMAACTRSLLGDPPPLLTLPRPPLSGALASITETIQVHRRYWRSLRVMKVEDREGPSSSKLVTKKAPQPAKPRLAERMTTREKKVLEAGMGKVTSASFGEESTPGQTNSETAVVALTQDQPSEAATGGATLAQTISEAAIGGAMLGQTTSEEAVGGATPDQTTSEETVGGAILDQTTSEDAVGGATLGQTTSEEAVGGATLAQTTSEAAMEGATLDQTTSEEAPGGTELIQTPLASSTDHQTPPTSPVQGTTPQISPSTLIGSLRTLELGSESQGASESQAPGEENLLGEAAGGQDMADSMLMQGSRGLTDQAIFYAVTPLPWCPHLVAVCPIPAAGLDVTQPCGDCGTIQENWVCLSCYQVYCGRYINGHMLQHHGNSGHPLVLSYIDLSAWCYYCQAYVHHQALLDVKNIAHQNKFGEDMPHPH
# test_details: ELISA-based HDAC activity assay, HDAC6
# condition_description: read-out: IC50 values (nM) HDAC6
assay_metric: IC50 (nM)

[I] O=C(CC[C@@H](CCCC(=O)Nc1ccccc1)Cc1ccccc1)NO [(R)-1f]
[II] O=C(CC[C@H](CCCC(=O)Nc1ccccc1)Cc1ccccc1)NO [(S)-1f]
Input line: Looking at recorded values for IC50, does I or II come in lower? Kindly state the label of the option you pick.
Output line: I
